B1: FAM9B (parent)
chain: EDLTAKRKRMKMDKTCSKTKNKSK

Variants of: B1
Experiment: protein stability index of a GFP-peptide fusion (GPS, HEK-293T) (PSI 1-6); higher = more stable;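 also: lentivirally expressed fusions sorted by FACS into six bins by GFP to DsRed ratio, PSI derived from sequencing read proportions per bin multiplied by bin number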
Conditions: c terminus: a fixed tail appended

Variant Spec: N21H
protein stability index: 5

Variant Spec: C16E
protein stability index: 5.47

Variant Spec: R9E
protein stability index: 5.12

Variant Spec: K11R
protein stability index: 4.97

Variant Spec: K20D
protein stability index: 4.9

Variant Spec: R7I
protein stability index: 4.82

Variant Spec: K11Q
protein stability index: 5.02

Variant Spec: K14M
protein stability index: 5.45

Variant Spec: C16P
protein stability index: 5.57

Variant Spec: T4G
protein stability index: 5.14

Variant Spec: K6D
protein stability index: 5.33

Variant Spec: S23E
protein stability index: 5.52

Variant Spec: T19M
protein stability index: 5.15

Variant Spec: T4A
protein stability index: 5.25

Variant Spec: K20Q
protein stability index: 5.15

Variant Spec: T15F
protein stability index: 4.8

Variant Spec: L3A
protein stability index: 4.91

Variant Spec: K24F
protein stability index: 4.83

Variant Spec: T15G
protein stability index: 4.55

Variant Spec: S17Y
protein stability index: 5.08

Variant Spec: T15Y
protein stability index: 5

Variant Spec: L3E
protein stability index: 5.77
